Can you tell me TGI for the items I'm about to list?
Test system: HOP-62 NSCLC
Assay: NCI tumour cell line growth inhibition, 48 h

Give me TGI for each of these molecules, listed below.
1. CN1CCN(CC#Cc2cccc(C(=O)c3cnn(-c4ccc(F)cc4)c3N)c2)CC1
2. COc1cc2oc(-c3ccc(O)cc3)c(OC3OC(C)C(O)C(O)C3O)c(=O)c2c(O)c1OC (stereo not drawn)

1. > 25 µM
2. > 100 µM

Give me TGI for each of these molecules, listed below.
1. N#CC1(c2nc3ccccc3o2)C(=O)C(=O)N(C2C3CC4CC(C3)CC2C4)C(=O)C1=O (stereo not drawn)
2. CCOC(=O)CC1=Nc2ccccc2SC1
3. O=[N+]([O-])[C@@H]1C2C=CC(C2)[C@H]1Cl (stereo partly drawn)
4. Fc1cccc(COc2ccc(Nc3ncncc3C#Cc3ccccc3)cc2Cl)c1
5. CC(C)(C)OC(=O)NC(Cc1ccccc1)C(=O)OCN1C(=O)C2C3C=CC(C2C1=O)C1C2C(=O)N(COC(=O)C(Cc4ccccc4)NC(=O)OC(C)(C)C)C(=O)C2C31 (stereo not drawn)

> 100 µM
> 100 µM
> 100 µM
> 25 µM
> 100 µM

Give me TGI for each of these molecules, listed below.
1. O=c1[nH]cnc2c(C3OC(CO)C(O)C3O)c[nH]c12 (stereo not drawn)
2. O=C1CC(C(O)CO)CC(=O)N1 (stereo not drawn)
3. COc1ccc(Nc2[nH]c(C(C)=O)c(N)c2C(=S)Nc2ccccc2)cc1
4. O=C(Nc1ccc(I)cc1C(=O)NCCO)c1cccs1
5. CCOC(=O)c1sc2nc(SC)nc3c2c1N=CN3c1ccc(Br)cc1
6. C=CC(=O)c1ccc2c(c1)OCCOCCOCCOCCOCCO2

["> 100 µM", "> 100 µM", "> 100 µM", "> 100 µM", "> 100 µM", "> 100 µM"]

Numbers sourced from PubChem BioAssay (NCI).
